- target_of_assay: CheA WT (Tm CheA) (Thermotoga maritima)
- Sequence (Q56310 whole entry): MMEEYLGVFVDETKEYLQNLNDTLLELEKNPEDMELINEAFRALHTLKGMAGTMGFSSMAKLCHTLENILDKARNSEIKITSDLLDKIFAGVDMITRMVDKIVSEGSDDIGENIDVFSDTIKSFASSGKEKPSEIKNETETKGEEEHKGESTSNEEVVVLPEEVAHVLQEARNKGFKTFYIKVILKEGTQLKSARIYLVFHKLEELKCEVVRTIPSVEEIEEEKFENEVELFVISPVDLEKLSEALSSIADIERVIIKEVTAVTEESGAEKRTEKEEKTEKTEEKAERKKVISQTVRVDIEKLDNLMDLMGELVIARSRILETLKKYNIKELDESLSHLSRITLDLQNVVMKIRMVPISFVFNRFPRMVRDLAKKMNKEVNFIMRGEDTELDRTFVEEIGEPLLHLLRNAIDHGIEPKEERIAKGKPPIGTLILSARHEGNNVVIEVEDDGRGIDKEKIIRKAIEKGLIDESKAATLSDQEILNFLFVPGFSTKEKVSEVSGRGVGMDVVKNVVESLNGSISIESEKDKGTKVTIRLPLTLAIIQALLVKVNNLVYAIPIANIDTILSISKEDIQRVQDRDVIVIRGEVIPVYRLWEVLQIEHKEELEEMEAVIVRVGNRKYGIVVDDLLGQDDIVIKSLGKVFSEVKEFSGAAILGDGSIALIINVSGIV
value_kind: pIC50
// pIC50 is dimensionless: -log10 of concentration (M)

Item Nc1ncnc2c1ncn2[C@@H]1O[C@H](COP(=O)(O)OP(=O)(O)O)[C@@H](O)[C@H]1O ; assay system CheA WT (Tm CheA) (Thermotoga maritima); pIC50 reported as 3.39
